Read-out: Interferon-gamma inducible Protein 10 (IP10), CXCL10 (gene 3627)
test.name: BSK_hDFCGF_IP10: BioMAP Diversity Plus: hDFCGF Assay for Interferon-gamma inducible Protein 10 (IP10) Biomarker Activity (AID 2283053)
experimental.parameters: primary human foreskin fibroblasts; actives raise or lower the signal
Calls of active or inactive are those of the source. How the source made its calls: active means hit-call score of the fitted dose curve at least 0.9, where 1 is the maximum; inactive means score below 0.9.
Tick one outcome: YES for active, NO for inactive

CCCCCCCCCC/C=C/C1CC(=O)OC1=O (configuration not stated) = NO
COC(=O)/C=C\C(=O)OC = NO
CCC(C)=NO = NO
CN(C)CCC(c1ccc(Cl)cc1)c1ccccn1 (configuration not stated) = NO
CC[N+](CC)(CC(=O)Nc1c(C)cccc1C)Cc1ccccc1 (tested in a mixture with another compound) = NO
Cc1cccnc1 = NO

Here is the next item to consider.
Incoming: Dear all, I need the recorded test outcome for CCCCCCCCCCCCCCCCCC[N+](C)(C)C , thank you.
Outgoing: YES

# credit: PubChem BioAssay (EPA / NIEHS)
